System: T1, Thp3;Csn12;Sem1 (Saccharomyces cerevisiae;Saccharomyces …, UniProt Q12049;P47130;O94742 1-470;1-423;1-89, ||)
T1 sequence 1: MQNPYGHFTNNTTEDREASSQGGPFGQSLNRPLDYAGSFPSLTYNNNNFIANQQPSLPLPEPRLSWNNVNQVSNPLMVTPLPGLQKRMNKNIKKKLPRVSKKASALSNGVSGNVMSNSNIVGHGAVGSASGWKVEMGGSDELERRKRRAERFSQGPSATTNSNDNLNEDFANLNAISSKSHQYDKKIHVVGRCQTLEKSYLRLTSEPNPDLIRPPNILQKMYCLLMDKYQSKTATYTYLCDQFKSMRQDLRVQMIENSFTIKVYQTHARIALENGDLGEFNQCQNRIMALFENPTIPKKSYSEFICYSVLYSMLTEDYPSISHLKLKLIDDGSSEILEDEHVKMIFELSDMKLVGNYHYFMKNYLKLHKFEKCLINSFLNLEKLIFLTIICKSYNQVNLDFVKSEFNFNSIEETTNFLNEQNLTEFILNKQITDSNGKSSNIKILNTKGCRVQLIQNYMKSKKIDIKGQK
T1 sequence 2: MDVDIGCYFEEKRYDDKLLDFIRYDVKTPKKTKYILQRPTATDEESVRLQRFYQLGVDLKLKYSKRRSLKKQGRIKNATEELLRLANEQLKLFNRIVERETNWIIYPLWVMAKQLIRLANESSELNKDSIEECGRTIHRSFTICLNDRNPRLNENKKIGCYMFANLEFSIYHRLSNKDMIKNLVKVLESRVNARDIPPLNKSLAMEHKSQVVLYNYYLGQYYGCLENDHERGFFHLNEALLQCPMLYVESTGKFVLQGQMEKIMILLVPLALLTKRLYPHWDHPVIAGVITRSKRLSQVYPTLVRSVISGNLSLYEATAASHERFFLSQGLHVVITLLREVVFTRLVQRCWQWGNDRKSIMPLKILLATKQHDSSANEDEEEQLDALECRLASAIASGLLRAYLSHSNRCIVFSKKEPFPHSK
T1 sequence 3: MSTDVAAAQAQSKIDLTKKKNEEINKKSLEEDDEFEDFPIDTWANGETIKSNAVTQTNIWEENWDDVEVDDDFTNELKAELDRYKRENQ
Test Summary: fluorescence polarization; FP: 20 mM Tris-HCl pH 8.0, 150 mM NaCl, 2 mM MgCl2, 25 C; 50 nM 5'-FAM probe, protein 0-25.6 uM, 30 min
Assay Setup: protein: recombinant;recombinant;recombinant; tags: 8xHis-GST N-terminal, removed by TEV;none;none; copies: 1;1;1; label: 5' FAM
Parameter: Kd (µM)
Express it in µM; write the number only.

# example entries with known answers
AUAUAUAUAUAUAUAUAUAU (ssRNA) [AU-repeat ssRNA 20] :: 4.5
AUAUAUAUAUAUAUAUAUAUAUAUA (ssRNA) [AU-repeat ssRNA 25] :: 1.6
TTTTATTTTATTTTTATTTT (ssDNA) [T-rich ssDNA 20] :: 3.7

Next up:
Data point: TTTTATTTTATTTTTATTTTATTTT (ssDNA) [T-rich ssDNA 25] ; Kd = 2.9
